Provenance of the data: patent US20090221560A1

Molecular target: dopamine D-2 receptor (Homo sapiens, UniProt P14416)
Sequence (P14416 whole entry): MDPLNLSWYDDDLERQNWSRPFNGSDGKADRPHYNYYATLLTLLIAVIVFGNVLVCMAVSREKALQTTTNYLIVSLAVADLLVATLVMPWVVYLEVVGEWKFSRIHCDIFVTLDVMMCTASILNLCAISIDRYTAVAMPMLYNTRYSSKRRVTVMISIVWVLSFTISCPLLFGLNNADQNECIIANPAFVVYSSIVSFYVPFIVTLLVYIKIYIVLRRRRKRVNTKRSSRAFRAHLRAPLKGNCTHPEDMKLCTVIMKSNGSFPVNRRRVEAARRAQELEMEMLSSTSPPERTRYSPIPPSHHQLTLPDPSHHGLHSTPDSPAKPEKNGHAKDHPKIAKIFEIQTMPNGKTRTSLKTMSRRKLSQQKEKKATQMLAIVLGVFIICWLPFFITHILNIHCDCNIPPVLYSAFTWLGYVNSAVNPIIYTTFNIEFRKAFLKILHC
Experiment: 3H-spiperone binding assay

| compound | target-system | IC50 |
| --- | --- | --- |
| CC(=O)N1CCN(C2=Nc3ccccc3Nc3sc(C)cc32)CC1 [formula II] | dopamine D-2 receptor (Homo sapiens, UniProt P14416) | < 1000 nM |
| Cc1cc2c(s1)Nc1ccccc1N=C2N1CC[N+](C)(CCl)CC1 [formula I] | dopamine D-2 receptor (Homo sapiens, UniProt P14416) | < 1000 nM |
